These entries and their values trace back to patent US20240174622A1.

# System: LNCaP tumor-transplanted mouse
# ASSAY_OVERVIEW: Internal radioactivity distribution using LNCaP tumor-transplanted mouse
# Type: in vivo
# MEASUREMENT_PARAMETERS: 48 h after administration
# Experimental: The animal test was performed in compliance with the guidelines of Kyoto University Animal Experiment Committee. […] LNCaP or PC-3 tumor-implanted mice were administered saline solutions (185 kBq, 100 μL) of [^111In]In-PSMA-DA1 or [^111In]In-PSMA-DB from the tail vein (n=3 each). […] Thereafter, blood and each organ were recovered, and the mass and radioactivity of the organs were measured. […]
REPORTED_PROPERTY: Blood (% ID/g)
Write the number in % ID/g without appending the unit.

Reference set, count: 4
[
  {
    "COMPOUND": "O=C([O-])CN(CCN(CCc1ccc(NC(=O)CCCCCNC(=O)CCC(=O)NCCCC[C@H](NC(=O)N[C@@H](CCC(=O)O)C(=O)O)C(=O)O)cc1)CCN(CC(=O)[O-])Cc1cccc(C(=O)[O-])n1)Cc1cccc(C(=O)[O-])n1.[111In+3] [[^111In]In-Neunpa-1, reference compound]",
    "Blood [% ID/g]": 0.09
  },
  {
    "COMPOUND": "O=C([O-])CN1CCN(C(CCC(=O)NCCCC[C@H](NC(=O)N[C@@H](CCC(=O)O)C(=O)O)C(=O)O)C(=O)[O-])CCN(CC(=O)[O-])CCN(C(CCC(=O)N[C@@H](CCCCNC(=O)CCCc2ccc(I)cc2)C(=O)O)C(=O)[O-])CC1.[111In+3] (some centres unmarked) [[^111In]In-PSMA-DA1]",
    "Blood [% ID/g]": 4.18
  },
  {
    "COMPOUND": "O=C([O-])CN(CCN(CCc1ccc(NC(=O)[C@H](CCCCNC(=O)CCC(=O)NCCCC[C@H](NC(=O)N[C@@H](CCC(=O)O)C(=O)O)C(=O)O)NC(=O)CCCc2ccc(I)cc2)cc1)CCN(CC(=O)[O-])Cc1cccc(C(=O)[O-])n1)Cc1cccc(C(=O)[O-])n1.[111In+3] [[^111In]In-Neunpa-2]",
    "Blood [% ID/g]": 0.20
  },
  {
    "COMPOUND": "O=C([O-])CN(Cc1cccc(C(=O)[O-])n1)C[C@H](Cc1ccc(NC(=O)CCCCCNC(=O)CCC(=O)NCCCC[C@H](NC(=O)N[C@@H](CCC(=O)O)C(=O)O)C(=O)O)cc1)N(CC(=O)[O-])Cc1cccc(C(=O)[O-])n1.[111In+3] [[^111In]In-Octapa-1, reference compound]",
    "Blood [% ID/g]": 0.00
  }
]

Would you kindly look at the next entry?
The reported value for O=C([O-])CN(Cc1cccc(C(=O)[O-])n1)C[C@H](Cc1ccc(NC(=O)[C@H](CCCCNC(=O)CCC(=O)NCCCC[C@H](NC(=O)N[C@@H](CCC(=O)O)C(=O)O)C(=O)O)NC(=O)COCCOCCOCC(=O)N[C@@H](CCCCNC(=O)CCCc2ccc(I)cc2)C(=O)O)cc1)N(CC(=O)[O-])Cc1cccc(C(=O)[O-])n1.[111In+3] [[^111In]In-Octapa-3] in terms of Blood is 3.88

---

# Test system: LNCaP tumor-transplanted mouse
# ASSAY_OVERVIEW: Internal radioactivity distribution using LNCaP tumor-transplanted mouse
# Assay type: in vivo
# MEASUREMENT_PARAMETERS: 48 h after administration
Catalogue of compounds with associated Pancreas
Write the number in % ID/g without appending the unit.

Reference set, count: 7
[
  {
    "COMPOUND": "O=C(O)CC[C@H](NC(=O)N[C@@H](CCCCNC(=O)[C@H](Cc1ccc2ccccc2c1)NC(=O)[C@H]1CC[C@H](CNC(=O)CCC(C(=O)O)N2CCN(CC(=O)O)CCN(C(CCC(=O)N[C@@H](CCCCNC(=O)CCCc3ccc(I)cc3)C(=O)O)C(=O)O)CCN(CC(=O)O)CC2)CC1)C(=O)O)C(=O)O (some centres unmarked) [[^111In]In-PSMA-NAT-DA1, metal not drawn]",
    "Pancreas / % ID/g": 2.26
  },
  {
    "COMPOUND": "O=C([O-])CN(Cc1cccc(C(=O)[O-])n1)C[C@H](Cc1ccc(NC(=O)[C@H](CCCCNC(=O)CCC(=O)NCCCC[C@H](NC(=O)N[C@@H](CCC(=O)O)C(=O)O)C(=O)O)NC(=O)COCCOCCOCC(=O)N[C@@H](CCCCNC(=O)CCCc2ccc(I)cc2)C(=O)O)cc1)N(CC(=O)[O-])Cc1cccc(C(=O)[O-])n1.[111In+3] [[^111In]In-Octapa-3]",
    "Pancreas / % ID/g": 0.60
  },
  {
    "COMPOUND": "O=C([O-])CN1CCN(C(CCC(=O)NCCCC[C@H](NC(=O)N[C@@H](CCC(=O)O)C(=O)O)C(=O)O)C(=O)[O-])CCN(CC(=O)[O-])CCN(C(CCC(=O)N[C@@H](CCCCNC(=O)CCCc2ccc(I)cc2)C(=O)O)C(=O)[O-])CC1.[111In+3] (some centres unmarked) [[^111In]In-PSMA-DA1]",
    "Pancreas / % ID/g": 1.06
  },
  {
    "COMPOUND": "O=C([O-])CN(CCN(CCc1ccc(NC(=O)CCCCCNC(=O)CCC(=O)NCCCC[C@H](NC(=O)N[C@@H](CCC(=O)O)C(=O)O)C(=O)O)cc1)CCN(CC(=O)[O-])Cc1cccc(C(=O)[O-])n1)Cc1cccc(C(=O)[O-])n1.[111In+3] [[^111In]In-Neunpa-1, reference compound]",
    "Pancreas / % ID/g": 0.38
  },
  {
    "COMPOUND": "O=C([O-])CN1CCN(C(CCC(=O)NCCC(=O)N2Cc3ccccc3-c3c(nnn3CCOCCOCCOCCOCCC(=O)NCCCC[C@H](NC(=O)N[C@@H](CCC(=O)O)C(=O)O)C(=O)O)-c3ccccc32)C(=O)[O-])CCN(CC(=O)[O-])CCN(C(CCC(=O)N[C@@H](CCCCNC(=O)CCCc2ccc(I)cc2)C(=O)O)C(=O)[O-])CC1.[111In+3] (some centres unmarked) [[^111In]In-PtDA]",
    "Pancreas / % ID/g": 1.12
  },
  {
    "COMPOUND": "O=C([O-])CN(Cc1cccc(C(=O)[O-])n1)C[C@H](Cc1ccc(NC(=O)[C@H](CCCCNC(=O)CCC(=O)NCCCC[C@H](NC(=O)N[C@@H](CCC(=O)O)C(=O)O)C(=O)O)NC(=O)CCCc2ccc(I)cc2)cc1)N(CC(=O)[O-])Cc1cccc(C(=O)[O-])n1.[111In+3] [[^111In]In-Octapa-2]",
    "Pancreas / % ID/g": 0.13
  },
  {
    "COMPOUND": "O=C([O-])CN(CCN(CCc1ccc(NC(=O)[C@H](CCCCNC(=O)CCC(=O)NCCCC[C@H](NC(=O)N[C@@H](CCC(=O)O)C(=O)O)C(=O)O)NC(=O)CCCc2ccc(I)cc2)cc1)CCN(CC(=O)[O-])Cc1cccc(C(=O)[O-])n1)Cc1cccc(C(=O)[O-])n1.[111In+3] [[^111In]In-Neunpa-2]",
    "Pancreas / % ID/g": 0.25
  }
]

Would you kindly look at the next entry?
The reported value for O=C([O-])CN1CCN(C(CCC(=O)NCCCC[C@H](NC(=O)N[C@@H](CCC(=O)O)C(=O)O)C(=O)O)C(=O)[O-])CCN(CC(=O)[O-])CCN(C(CCC(=O)Nc2ccccc2)C(=O)[O-])CC1.[111In+3] (some centres unmarked) [[^111In]In-PSMA-DB, reference compound] in terms of Pancreas is 0.71

---

# System: LNCaP tumor-transplanted mouse
# ASSAY_OVERVIEW: Internal radioactivity distribution using LNCaP tumor-transplanted mouse
# Format: in vivo
# MEASUREMENT_PARAMETERS: 96 h after administration
REPORTED_PROPERTY: Intestine (% ID/g)
Write the number in % ID/g without appending the unit.

Reference set, count: 2
[
  {
    "COMPOUND": "O=C([O-])CN1CCN(C(CCC(=O)NCCCC[C@H](NC(=O)N[C@@H](CCC(=O)O)C(=O)O)C(=O)O)C(=O)[O-])CCN(CC(=O)[O-])CCN(C(CCC(=O)N[C@@H](CCCCNC(=O)CCCc2ccc(I)cc2)C(=O)O)C(=O)[O-])CC1.[111In+3] (stereo partly drawn) [[^111In]In-PSMA-DA1]",
    "Intestine (% ID/g)": 0.75
  },
  {
    "COMPOUND": "O=C([O-])CN1CCN(C(CCC(=O)NCCCC[C@H](NC(=O)N[C@@H](CCC(=O)O)C(=O)O)C(=O)O)C(=O)[O-])CCN(CC(=O)[O-])CCN(C(CCC(=O)Nc2ccccc2)C(=O)[O-])CC1.[111In+3] (stereo partly drawn) [[^111In]In-PSMA-DB, reference compound]",
    "Intestine (% ID/g)": 0.41
  }
]

The reported value for O=C([O-])CN(Cc1cccc(C(=O)[O-])n1)C[C@H](Cc1ccc(NC(=O)[C@H](CCCCNC(=O)CCC(=O)NCCCC[C@H](NC(=O)N[C@@H](CCC(=O)O)C(=O)O)C(=O)O)NC(=O)COCCOCCOCC(=O)N[C@@H](CCCCNC(=O)CCCc2ccc(I)cc2)C(=O)O)cc1)N(CC(=O)[O-])Cc1cccc(C(=O)[O-])n1.[111In+3] [[^111In]In-Octapa-3] in terms of Intestine is 0.29
